// provenance: patent US8088763B2

Target: NA-uptake (Rattus norvegicus, UniProt Q63380)
Sequence (Q63380 1-617): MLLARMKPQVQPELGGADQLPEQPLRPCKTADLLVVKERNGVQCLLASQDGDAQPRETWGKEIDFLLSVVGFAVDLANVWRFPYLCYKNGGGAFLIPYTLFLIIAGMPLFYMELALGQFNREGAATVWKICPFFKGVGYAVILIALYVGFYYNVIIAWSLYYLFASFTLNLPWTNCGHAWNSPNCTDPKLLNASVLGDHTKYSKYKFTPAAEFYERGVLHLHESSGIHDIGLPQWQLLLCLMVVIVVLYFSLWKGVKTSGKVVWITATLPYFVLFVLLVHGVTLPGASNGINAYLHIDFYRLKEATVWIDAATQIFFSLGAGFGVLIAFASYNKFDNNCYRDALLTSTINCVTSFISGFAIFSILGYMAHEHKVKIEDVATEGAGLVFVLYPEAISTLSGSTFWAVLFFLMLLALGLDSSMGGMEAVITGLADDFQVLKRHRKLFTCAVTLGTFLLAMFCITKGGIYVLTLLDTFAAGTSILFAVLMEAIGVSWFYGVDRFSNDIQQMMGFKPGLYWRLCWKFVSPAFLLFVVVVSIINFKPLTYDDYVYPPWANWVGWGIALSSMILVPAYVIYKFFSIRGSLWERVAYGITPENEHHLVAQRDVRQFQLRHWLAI
Assay: biochemical
Settings: read-out: NA-uptake [10 μM], % inhibition
Measurement Type: inhibition at 10 µM (%)
Value expressed in %; do not type the unit.

Reference set, count: 3
CN(C)C1(Cc2cccc(Cl)c2)CCC(NC(=O)CCC(=O)N2CCc3[nH]c4ccc(F)cc4c3C2)CC1 (stereo not shown) [Example 8] ... 85
COc1ccc(OC)c(CN2CCN(C(=O)CCCC(=O)NC3CCC(Cc4ccccc4)(N(C)C)CC3)CC2)c1 (stereo not shown) [Example 18] ... 84
CN(C)C1(Cc2cccc(Cl)c2)CCC(NC(=O)CCC(=O)NCc2cc(Cl)ccc2Cl)CC1 (stereo not shown) [Example 133] ... 97

Dear colleague, I am looking for the recorded inhibition at 10 µM of the following molecule: CN(C)C1(Cc2cccc(Cl)c2)CCC(NC(=O)CCC(=O)N2CCC3(CC2)C(=O)NCN3c2ccccc2)CC1 (stereo not shown) [Example 114] 106

Entry Cc1cnc(C(=O)N2CCN(C(=O)CCC(=O)NC3CCC(Cc4cccc(Cl)c4)(N(C)C)CC3)CC2)cn1 (stereo not shown) [Example 33] please 99

Entry Cc1ccc(CC2(N(C)C)CCC(NC(=O)CCC(=O)N3CCN(C(=O)OC(C)(C)C)CC3)CC2)cc1 (stereo not shown) [Example 28] please 81

Entry COc1ccc2[nH]cc(CCNC(=O)CCC(=O)NC3CCC(Cc4cccc(C)c4)(N(C)C)CC3)c2c1 (stereo not shown) [Example 139] please 95

----------
// values below are reported inhibition at 10 µM
Molecular target: 5HT-uptake (Rattus norvegicus, UniProt P31652)
Construct: synaptosomes were freshly isolated from areas of rats' brains
Sequence (P31652 whole entry): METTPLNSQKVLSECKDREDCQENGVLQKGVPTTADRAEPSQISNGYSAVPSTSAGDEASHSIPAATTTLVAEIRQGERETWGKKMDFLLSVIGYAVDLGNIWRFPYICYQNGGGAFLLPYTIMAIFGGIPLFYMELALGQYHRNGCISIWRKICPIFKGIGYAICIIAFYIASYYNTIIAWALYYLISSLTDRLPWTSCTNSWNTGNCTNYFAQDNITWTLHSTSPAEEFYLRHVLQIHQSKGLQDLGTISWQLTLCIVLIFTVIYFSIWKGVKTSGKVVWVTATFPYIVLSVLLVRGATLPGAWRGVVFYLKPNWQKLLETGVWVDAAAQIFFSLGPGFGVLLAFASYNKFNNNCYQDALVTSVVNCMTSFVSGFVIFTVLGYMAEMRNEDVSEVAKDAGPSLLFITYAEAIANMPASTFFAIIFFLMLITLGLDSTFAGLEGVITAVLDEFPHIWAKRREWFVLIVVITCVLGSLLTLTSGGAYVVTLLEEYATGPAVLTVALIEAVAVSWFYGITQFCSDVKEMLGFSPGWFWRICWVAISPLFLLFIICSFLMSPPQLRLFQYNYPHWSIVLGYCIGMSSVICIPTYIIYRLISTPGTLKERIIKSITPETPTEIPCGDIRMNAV
Assay: biochemical
Settings: read-out: 5HT-uptake [10 μM], % inhibition
Value expressed in %; do not type the unit.

Reference set, count: 5
Cc1ccc(CC2(N(C)C)CCC(NC(=O)CCC(=O)N3CCN(C(=O)OC(C)(C)C)CC3)CC2)cc1 (stereo not shown) [Example 28] ... 92
Cc1ccc(CC2(N(C)C)CCC(NC(=O)CCC(=O)NCC3CCCO3)CC2)cc1 (stereo not shown) [Example 45] ... 92
CN(C)C1(Cc2ccccc2)CCC(NC(=O)CCCC(=O)N2CCN(C3CCCCCC3)CC2)CC1 (stereo not shown) [Example 62] ... 100
CN(C)C1(Cc2cccc(Cl)c2)CCC(NC(=O)CCC(=O)N2CCC3(CC2)C(=O)NCN3c2ccccc2)CC1 (stereo not shown) [Example 114] ... 99
Cc1ccc(CC2(N(C)C)CCC(NC(=O)CCC(=O)N3CCN(c4cccc(C)c4C)CC3)CC2)cc1 (stereo not shown) [Example 58] ... 93

Turning to the following compound.
Item Cc1cnc(C(=O)N2CCN(C(=O)CCC(=O)NC3CCC(Cc4cccc(Cl)c4)(N(C)C)CC3)CC2)cn1 (stereo not shown) [Example 33] with 5HT-uptake (Rattus norvegicus, UniProt P31652) - inhibition at 10 µM? 95

----------
Biological target: 5HT-uptake (Rattus norvegicus, UniProt P31652)
Construct: synaptosomes were freshly isolated from areas of rats' brains
Assay: biochemical
Conditions: read-out: 5HT-uptake [10 μM], % inhibition
// values below are reported inhibition at 10 µM
Value expressed in %; do not type the unit.

Reference set, count: 6
CN(C)C1(Cc2ccc(Cl)cc2)CCC(NC(=O)CCC(=O)NCc2cccc3ccccc23)CC1 (stereo not drawn) ... 97
CN(CCc1c[nH]c2ccccc12)C(=O)CCC(=O)NC1CCC(Cc2ccc(Cl)cc2)(N(C)C)CC1 (stereo not drawn) ... 93
COc1ccc(NC(=O)CCC(=O)NC2CCC(Cc3cccc(C)c3)(N(C)C)CC2)cc1 (stereo not drawn) ... 97
Cc1ccc(CC2(N(C)C)CCC(NC(=O)CCC(=O)N3CC=C(c4ccccc4)CC3)CC2)cc1 (stereo not drawn) ... 96
CN(C)C1(Cc2ccc(Cl)cc2)CCC(NC(=O)CCC(=O)N2CCSCC2)CC1 (stereo not drawn) ... 92
Cc1ccc(CC2(N(C)C)CCC(NC(=O)CCC(=O)N(C)CCNC(=O)C(F)(F)F)CC2)cc1 (stereo not drawn) ... 92

Dear colleague, I am looking for the recorded inhibition at 10 µM of the following molecule: Cc1ccc(CC2(N(C)C)CCC(NC(=O)CCC(=O)NC(C)C(C)C)CC2)cc1 (stereo not drawn) 92

Entry CN(Cc1cccnc1)C(=O)CCC(=O)NC1CCC(Cc2cccc(Cl)c2)(N(C)C)CC1 (stereo not drawn) please 94

Entry Cc1ccc(CC2(N(C)C)CCC(NC(=O)CCC(=O)N3CCN(c4ccccc4C)CC3)CC2)cc1 (stereo not drawn) please 92
